Every entry's value here was drawn from paper PMC6733756.

- Assay Target: human XCR1 (human) (UniProt P46094)
- Assay Explanation: radioligand binding
pEC50: −log10 of the molar value.
# pEC50 per record follows
Endpoint Label: pEC50

Binder	Endpoint Label	Reading Qualifier	Test Value
XCL1 WT (ligand) VGSEVSDKRTCVSLTTQRLPVSRIKTYTITEGSLRAVIFITKRGLKVCADPQATWVRDVVRSMDRKSNTRNNMIQTKPTGTQQSTNTAVTLTG	pEC50	=	8.11
XCL1 CC3 K8A (ligand) VGSEVSDARTCVSLTTQRLPCSRIKTYTITEGSLRAVIFITKRGLKVCADPQATWVRDCVRSMDRKSNTRNNMIQTKPTGTQQSTNTAVTLTG	pEC50	=	8.28
XCL1 CC3 S6A (ligand) VGSEVADKRTCVSLTTQRLPCSRIKTYTITEGSLRAVIFITKRGLKVCADPQATWVRDCVRSMDRKSNTRNNMIQTKPTGTQQSTNTAVTLTG	pEC50	>	9.00
XCL1 CC3 R9A (ligand) VGSEVSDKATCVSLTTQRLPCSRIKTYTITEGSLRAVIFITKRGLKVCADPQATWVRDCVRSMDRKSNTRNNMIQTKPTGTQQSTNTAVTLTG	pEC50	>	9.00
XCL1 CC3 V5A (ligand) VGSEASDKRTCVSLTTQRLPCSRIKTYTITEGSLRAVIFITKRGLKVCADPQATWVRDCVRSMDRKSNTRNNMIQTKPTGTQQSTNTAVTLTG	pEC50	=	8.10
XCL1 CC3 (ligand) VGSEVSDKRTCVSLTTQRLPCSRIKTYTITEGSLRAVIFITKRGLKVCADPQATWVRDCVRSMDRKSNTRNNMIQTKPTGTQQSTNTAVTLTG	pEC50	=	9.00
